This collection of values is drawn from patent US10280205B2.

Target: HLA-A*02:01 (Homo sapiens, UniProt P04439, D140Y/D185E/D98H/E176V/E277Q/G131W/G231S/I119V/I121R/I166T/I218V/L300P/L318F/N151K/N90K/P208A/P217A/Q86G/Q94H/R138H/R169H/T345S)
Experiment: MHC binding assay: UV-ligand exchange with beta2m ELISA (exchange yield)
Conditions: binding to HLA-A*02:01, β2m ELISA
QUANTITY_KIND: Peptide exchange (MHC class I binding score, peptide exchange yield)

Worked examples, 5 substances total:
> print(dat)
                                  substance     observed.value
1  603 (FLIEPEHVNTV; listed as Homo sapiens) [compound 603]   “++” (≥20% = ++)
2  547 (TLDITPHTV; listed as Homo sapiens) [compound 547]  “+++” (≥50 = +++)
3  559 (VTVPPGPSL; listed as Homo sapiens) [compound 559]   “++” (≥20% = ++)
4  379 (IMEGTLTRV; listed as Homo sapiens) [compound 379]   “++” (≥20% = ++)
5  145 (FLATSGTLAGI; listed as Homo sapiens) [compound 145]   “++” (≥20% = ++)

# return Peptide exchange (MHC class I binding score, peptide exchange yield) for each item in the list
1. 97 (SLINGSFLV; listed as Homo sapiens) [compound 97]
2. 64 (YAAPGGLIGV; listed as Homo sapiens) [compound 64]

## Result
“+++” (≥50 = +++)
“++” (≥20% = ++)

----------
Target: HLA-A*02:01 (Homo sapiens, UniProt P04439, D140Y/D185E/D98H/E176V/E277Q/G131W/G231S/I119V/I121R/I166T/I218V/L300P/L318F/N151K/N90K/P208A/P217A/Q86G/Q94H/R138H/R169H/T345S)
Experiment: MHC binding assay: UV-ligand exchange with beta2m ELISA (exchange yield)
Settings: binding to HLA-A*02:01, β2m ELISA
QUANTITY_KIND: Peptide exchange (MHC class I binding score, peptide exchange yield)

> print(dat)
                                  substance     observed.value
1  405 (ALYDVFLEV; listed as Homo sapiens) [compound 405]   “++” (≥20% = ++)
2  82 (FLSSVTYNL; listed as Homo sapiens) [compound 82]  “+++” (≥50 = +++)
3  426 (RLADKSVLV; listed as Homo sapiens) [compound 426]  “+++” (≥50 = +++)
4  619 (ALQDRVPLA; listed as Homo sapiens) [compound 619]  “+++” (≥50 = +++)
5  326 (FLPEALDFV; listed as Homo sapiens) [compound 326]  “+++” (≥50 = +++)

# return Peptide exchange (MHC class I binding score, peptide exchange yield) for each item in the list
1. 351 (SLIPNLRNV; listed as Homo sapiens) [compound 351]
2. 60 (SLTIDGIYYV; listed as Homo sapiens) [compound 60]

## Result
1. “+++” (≥50 = +++)
2. “++++” (≥75% = ++++)

----------
Target: HLA-A*02:01 (Homo sapiens, UniProt P04439, D140Y/D185E/D98H/E176V/E277Q/G131W/G231S/I119V/I121R/I166T/I218V/L300P/L318F/N151K/N90K/P208A/P217A/Q86G/Q94H/R138H/R169H/T345S)
Test: MHC binding assay: UV-ligand exchange with beta2m ELISA (exchange yield)
Details: binding to HLA-A*02:01, β2m ELISA
QUANTITY_KIND: Peptide exchange (MHC class I binding score, peptide exchange yield)

Worked examples, 8 substances total:
> print(dat)
                                  substance     observed.value
1  36 (YVLEDLEVTV; listed as Homo sapiens) [compound 36]   “++” (≥20% = ++)
2  509 (FLFDTKPLIV; listed as Homo sapiens) [compound 509]  “+++” (≥50 = +++)
3  25 (FLPDEPYIKV; listed as Homo sapiens) [compound 25]  “+++” (≥50 = +++)
4  431 (SLVNVVPKL; listed as Homo sapiens) [compound 431]   “++” (≥20% = ++)
5  67 (TLLAEALVTV; listed as Homo sapiens) [compound 67]  “+++” (≥50 = +++)
6  492 (SLFDGFADGLGV; listed as Homo sapiens) [compound 492]  “+++” (≥50 = +++)
7  96 (YIFTDNPAAV; listed as Homo sapiens) [compound 96]  “+++” (≥50 = +++)
8  481 (GLIEDYEALL; listed as Homo sapiens) [compound 481]  “+++” (≥50 = +++)

Peptide exchange (MHC class I binding score, peptide exchange yield) for 318 (GLINTGVLSV; listed as Homo sapiens) [compound 318] is “++” (≥20% = ++)

----------
Biological target: HLA-A*02:01 (Homo sapiens, UniProt P04439, D140Y/D185E/D98H/E176V/E277Q/G131W/G231S/I119V/I121R/I166T/I218V/L300P/L318F/N151K/N90K/P208A/P217A/Q86G/Q94H/R138H/R169H/T345S)
Test: MHC binding assay: UV-ligand exchange with beta2m ELISA (exchange yield)
Details: binding to HLA-A*02:01, β2m ELISA
QUANTITY_KIND: Peptide exchange (MHC class I binding score, peptide exchange yield)

Worked examples, 5 substances total:
> print(dat)
                                  substance     observed.value
1  594 (IMLKGDNITL; listed as Homo sapiens) [compound 594]  “+++” (≥50 = +++)
2  240 (ILLEQAFYL; listed as Homo sapiens) [compound 240]  “+++” (≥50 = +++)
3  607 (RLYSGISGLEL; listed as Homo sapiens) [compound 607]  “+++” (≥50 = +++)
4  93 (LLQAIKLYL; listed as Homo sapiens) [compound 93]   “++” (≥20% = ++)
5  135 (ALSEVDFQL; listed as Homo sapiens) [compound 135]  “+++” (≥50 = +++)

# return Peptide exchange (MHC class I binding score, peptide exchange yield) for each item in the list
1. 193 (QLLDADGFLNV; listed as Homo sapiens) [compound 193]
2. 242 (AIAYILQGV; listed as Homo sapiens) [compound 242]

## Result
“+++” (≥50 = +++)
“++” (≥20% = ++)

# return Peptide exchange (MHC class I binding score, peptide exchange yield) for each item in the list
1. 283 (ALYIGDGYVIHLA; listed as Homo sapiens) [compound 283]
2. 356 (KLLGKLPEL; listed as Homo sapiens) [compound 356]

## Result
“+++” (≥50 = +++)
“+++” (≥50 = +++)

----------
Biological target: HLA-A*02:01 (Homo sapiens, UniProt P04439, D140Y/D185E/D98H/E176V/E277Q/G131W/G231S/I119V/I121R/I166T/I218V/L300P/L318F/N151K/N90K/P208A/P217A/Q86G/Q94H/R138H/R169H/T345S)
Assay: MHC binding assay: UV-ligand exchange with beta2m ELISA (exchange yield)
Details: binding to HLA-A*02:01, β2m ELISA
QUANTITY_KIND: Peptide exchange (MHC class I binding score, peptide exchange yield)

Worked examples, 5 substances total:
> print(dat)
                                  substance     observed.value
1  165 (SLLDEIRAV; listed as Homo sapiens) [compound 165]  “+++” (≥50 = +++)
2  480 (ALLEDSCHYL; listed as Homo sapiens) [compound 480]  “+++” (≥50 = +++)
3  393 (GLLDTQTSQVLTA; listed as Homo sapiens) [compound 393]   “++” (≥20% = ++)
4  281 (ILRESTEEL; listed as Homo sapiens) [compound 281]  “+++” (≥50 = +++)
5  131 (FVPPVTVFPSL; listed as Homo sapiens) [compound 131]   “++” (≥20% = ++)

# return Peptide exchange (MHC class I binding score, peptide exchange yield) for each item in the list
1. 471 (YLYNNMIAKI; listed as Homo sapiens) [compound 471]
2. 343 (SLLEVNEESTV; listed as Homo sapiens) [compound 343]
3. 215 (QLINHLHAV; listed as Homo sapiens) [compound 215]

## Result
1. “+++” (≥50 = +++)
2. “+++” (≥50 = +++)
3. “+++” (≥50 = +++)

----------
Tested on: CD8+ T cells
Assay: In vitro T-cell priming assay with aAPCs loaded with peptide/MHC complexes and anti-CD28, multimer staining readout (in vitro immunogenicity)
Assay type: cell-based, human
Conditions: HLA-A*02 restricted peptides
QUANTITY_KIND: Wells positive [%]

Worked examples, 5 substances total:
> print(dat)
                                  substance         observed.value
1  150 (RLWEEGEELEL; listed as Homo sapiens) [compound 150]         “+” (<20% = +)
2  166 (YLNHLEPPV; listed as Homo sapiens) [compound 166]  “++++” (>=70% = ++++)
3  60 (SLTIDGIYYV; listed as Homo sapiens) [compound 60]  “++++” (>=70% = ++++)
4  11 (KIFEMLEGV; listed as Homo sapiens) [compound 11]         “+” (<20% = +)
5  48 (ALAELYEDEV; listed as Homo sapiens) [compound 48]         “+” (<20% = +)

# return Wells positive [%] for each item in the list
1. 141 (YLDFSNNRL; listed as Homo sapiens) [compound 141]
2. 319 (SLEPQIQPV; listed as Homo sapiens) [compound 319]
3. 460 (AMLEKNYKL; listed as Homo sapiens) [compound 460]
4. 113 (GLLPTPLFGV; listed as Homo sapiens) [compound 113]

## Result
1: “+” (<20% = +); 2: “+” (<20% = +); 3: “+” (<20% = +); 4: “+” (<20% = +)
